Consider the following binders and their measured % inhib of 125I-TSH binding at 10 µg/mL readings.
measured target: T1, TSHR coated onto tubes (human, UniProt P16473 21-764, limits assumed)
T1 construct: whole entry named; also called TSHR coated tubes; thyrotropin receptor
protocol: TSHR coated tubes, competitor 125I-TSH
Kindly answer with a numeric value in %, unit omitted.

Any idea what its % inhib of 125I-TSH binding at 10 µg/mL is? The binder is 17D2 IgG (antibody, V domains shown) VH: DVQIQQSGPELVKPGASVKMSCKASGYSFTAYNMHWVKQTHGKSLEWIGYIDPYSGATSYHQKFKGKATLTVDKSSSTAYMRLNSLTSEDSAVYYCARRWDWDPYAMDYWGQGTSVTVSS VL: SVEMSQSPAILSVSPGERISFSCRASQSIGTSIHWYQQRTNGSPRLLIKYASASISGIPSRFSGSGSGTDFTLSINSVESEDIADYYCQQSNSWPLTFGAGTKLELKR
43

Next:
Any idea what its % inhib of 125I-TSH binding at 10 µg/mL is? The binder is 14D3 IgG (antibody, V domains shown) VH: DVQMQQPGPELVKPGASLKMSCKASGYSFTGYNMHWVKQSHGKSLEWIGYIDPYSGATSYNQKFEGKATLTVDKSSSTAYMQLNSLTSEDSAVYYCARRWDWDPYAMDYWGQGTSVTVSS VL: NILMTQSPAILSVSPGERVSFACRASQSIGTSIHWYQQRTNGSPRLLIKYASESISGIPSRFSGSGSGTDFTLSINSVESEDIADYYCQQTNRWPLTFGAGTKLELKR
52

src = patent US8840891
